details: in methanol, 288.15 K

# smiles-text, solubility (mole fraction)
records = [
    ("Nc1cncc(Cl)n1", 0.00164),
]

----------
details: in water, 298.15 K
readout-label: solubility (mole fraction)

# smiles-text, readout-label, value-reported
rows = [
    ("Nc1cncc(Cl)n1", "solubility (mole fraction)", "7.43e-05"),
]

----------
details: in methanol, 318.15 K

# smiles-text, solubility (mole fraction)
records = [
    ("Nc1cncc(Cl)n1", 0.00489),
]

----------
details: in DMF, 283.15 K

# smiles-text, solubility (mole fraction)
records = [
    ("Nc1cncc(Cl)n1", 0.0111),
]
